System: SNB-75 CNS
method description: NCI-60 one-dose screen, 48 h (100 = growth as untreated, 0 = no growth, -100 = all killed)
conditions used: 10 µM unless noted
Compounds without any hit were thinned out: in the full panel of roughly 83,000, 20% have a hit. The source made the active and inactive calls. Rule for the calls: active = growth percent below 10; inactive = the rest.

sample smiles	growth
CN(C)C(=O)Nc1nc2cc(Cl)c(Cl)cc2[nH]1	14.7% (inactive)
O=C(Nc1ccc(-n2cc(-c3ccncc3)c(-c3ccc(O)c(Cl)c3)n2)cc1)c1cc(Cl)cc(Cl)c1	60.6% (inactive)
Nc1ncnc2c1c(-c1ccc(Oc3ccccc3)cc1)nn2C[C@@H]1SSC[C@H]1O	2.29% (active)
COc1cc(/C=C/C(=O)c2c(C)[n+]([O-])c3ccccc3[n+]2[O-])ccc1O	162% (inactive)
COc1ccc(C(=O)NC(=O)Nc2ccc3c(c2)NC(=O)/C3=C\c2[nH]c(C)c(C(=O)O)c2C)c(F)c1	30.4% (inactive)
